- Assay Target: HLA-B*35:01
- Test Details: IEDB peptide-MHC binding, purified MHC/competitive/radioactivity; filed as Kd, often an IC50 or EC50 that approximates it; bounds were set here for any values at or beyond the usual limits of such assays
- Condition Info: source organism: Toxoplasma gondii
Property: pKd
Give bare numbers, as −log10 of the molar value.

Query: GET /values?readout=pKd&item= HPGSVNEFDF
Result: 5.68

---

- Assay Target: HLA-B*54:01
- Test Details: IEDB peptide-MHC binding, purified MHC/competitive/radioactivity; filed as Kd, often an IC50 or EC50 that approximates it; bounds were set here for any values at or beyond the usual limits of such assays
- Condition Info: source organism: Toxoplasma gondii
Property: pKd
One number for each entry, as −log10 of the molar value.

Query: GET /values?readout=pKd&item= HPGSVNEFDF
Result: 6.07

---

- Assay Target: HLA-B*51:01
- Test Details: IEDB peptide-MHC binding, purified MHC/competitive/radioactivity; filed as Kd, often an IC50 or EC50 that approximates it; bounds were set here for any values at or beyond the usual limits of such assays
- Condition Info: source organism: Toxoplasma gondii
Property: pKd
One number for each entry, as −log10 of the molar value.

Query: GET /values?readout=pKd&item= HPGSVNEFDF
Result: 4.83

---

- Assay Target: HLA-B*53:01
- Test Details: IEDB peptide-MHC binding, purified MHC/competitive/radioactivity; filed as Kd, often an IC50 or EC50 that approximates it; bounds were set here for any values at or beyond the usual limits of such assays
- Condition Info: source organism: Toxoplasma gondii
Property: pKd
Give bare numbers, as −log10 of the molar value.

Query: GET /values?readout=pKd&item= HPGSVNEFDF
Result: 5.26

Hello, the source for this data is the Immune Epitope Database (IEDB), in case you need it.
